For each entry below, report its CC50 value.
- EXPERIMENT_NOTES: Cytotoxicity against human HepG2(2.2.15) cells by MTT assay
- Type: cell-based
- TEST_CONTEXT: HepG2(2.2.15) cells
Kindly provide the numeric value in µM only, without the unit symbol.

Data request: Param item = CC(=O)[C@]1(O)CC[C@@]2(O)[C@]1(C)[C@H](OC(=O)/C=C(\C)C(C)C)C[C@@H]1[C@@]3(C)CC[C@H](OC(=O)CO)CC3=CC[C@]12O ; retrieve measured CC50.
Data returned: 136

Data request: Param item = CC(=O)[C@]1(O)CC[C@@]2(O)[C@]1(C)[C@H](OC(=O)/C=C(\C)C(C)C)C[C@@H]1[C@@]3(C)CC[C@H](OC(=O)c4ccc(F)nc4)CC3=CC[C@]12O ; retrieve measured CC50.
Data returned: 14.3

Data request: Param item = CC(=O)[C@]1(OC(=O)CCC(=O)O)CC[C@@]2(O)[C@]1(C)[C@H](OC(=O)/C=C(\C)C(C)C)C[C@@H]1[C@@]3(C)CC[C@H](OC(=O)CCC(=O)O)CC3=CC[C@]12O ; retrieve measured CC50.
Data returned: 483

----------
For each entry below, report its selectivity ratio value.
- Tested on: Hepatitis B virus
- EXPERIMENT_NOTES: Selectivity ratio of CC50 for human HepG2(2.2.15) cells to IC50 for Hepatitis B virus infected in human HepG2.2.15 cells assessed as suppression of HBsAg secretion
- Format: cell-based
- TEST_CONTEXT: read-out: Ratio CC50/IC50
Number only, please.

Data request: Query selectivity ratio on Hepatitis B virus for CC(=O)[C@]1(O)CC[C@@]2(O)[C@]1(C)[C@H](OC(=O)/C=C(\C)C(C)C)C[C@@H]1[C@@]3(C)CC[C@H](OC(=O)COc4ccccc4)CC3=CC[C@]12O
Data returned: 4.2

Data request: Query selectivity ratio on Hepatitis B virus for CC(=O)[C@]1(O)CC[C@]23OC(C)(C)O[C@]24CC=C2C[C@@H](O)CC[C@]2(C)[C@H]4C[C@@H](OC(=O)/C=C(\C)C(C)C)[C@@]31C
Data returned: 3

Data request: Query selectivity ratio on Hepatitis B virus for CC(=O)[C@]1(O)CC[C@@]2(O)[C@]1(C)[C@H](OC(=O)/C=C(\C)C(C)C)C[C@@H]1[C@@]3(C)CC[C@H](OC(=O)c4cc5ccccc5[nH]4)CC3=CC[C@]12O
Data returned: 1.7

Data request: Query selectivity ratio on Hepatitis B virus for CC(=O)[C@]1(O)CC[C@@]2(O)[C@]1(C)[C@H](OC(=O)/C=C(\C)C(C)C)C[C@@H]1[C@@]3(C)CC[C@H](O)C[C@@]34O[C@H]4C[C@]12O
Data returned: 1.2

Data request: Query selectivity ratio on Hepatitis B virus for CC(=O)[C@]1(O)CC[C@@]2(O)[C@]1(C)[C@H](OC(=O)/C=C(\C)C(C)C)C[C@@H]1[C@@]3(C)CC[C@H](OC(=O)C(C#N)=C(C)C)CC3=CC[C@]12O
Data returned: 3.3

----------
- System: Hepatitis B virus
- EXPERIMENT_NOTES: Selectivity ratio of CC50 for human HepG2(2.2.15) cells to IC50 for Hepatitis B virus infected in human HepG2(2.2.15) cells assessed as inhibition of viral replication
- Assay type: cell-based
- TEST_CONTEXT: read-out: Ratio CC50/IC50
For each entry below, report its selectivity ratio value.

Data request: Query selectivity ratio on Hepatitis B virus for CC(=O)[C@]1(O)CC[C@@]2(O)[C@]1(C)[C@H](OC(=O)/C=C(\C)C(C)C)C[C@@H]1[C@@]3(C)CC[C@H](OC(=O)COCC(=O)O)CC3=CC[C@]12O
Data returned: 1.7

Data request: Query selectivity ratio on Hepatitis B virus for CC(=O)[C@]1(O)CC[C@@]2(O)[C@]1(C)[C@H](OC(=O)/C=C(\C)C(C)C)C[C@@H]1[C@@]3(C)CC[C@H](OC(=O)CC#N)CC3=CC[C@]12O
Data returned: 10.5

Data request: Query selectivity ratio on Hepatitis B virus for CC(=O)N1CCC[C@H]1C(=O)O[C@H]1CC[C@@]2(C)C(=CC[C@]3(O)[C@@H]2C[C@@H](OC(=O)/C=C(\C)C(C)C)[C@@]2(C)[C@]3(O)CC[C@@]2(O)C(C)=O)C1
Data returned: 1.6
